# test target: ROCK2 (Homo sapiens (Human), UniProt O75116)
# Sequence (O75116 1-552): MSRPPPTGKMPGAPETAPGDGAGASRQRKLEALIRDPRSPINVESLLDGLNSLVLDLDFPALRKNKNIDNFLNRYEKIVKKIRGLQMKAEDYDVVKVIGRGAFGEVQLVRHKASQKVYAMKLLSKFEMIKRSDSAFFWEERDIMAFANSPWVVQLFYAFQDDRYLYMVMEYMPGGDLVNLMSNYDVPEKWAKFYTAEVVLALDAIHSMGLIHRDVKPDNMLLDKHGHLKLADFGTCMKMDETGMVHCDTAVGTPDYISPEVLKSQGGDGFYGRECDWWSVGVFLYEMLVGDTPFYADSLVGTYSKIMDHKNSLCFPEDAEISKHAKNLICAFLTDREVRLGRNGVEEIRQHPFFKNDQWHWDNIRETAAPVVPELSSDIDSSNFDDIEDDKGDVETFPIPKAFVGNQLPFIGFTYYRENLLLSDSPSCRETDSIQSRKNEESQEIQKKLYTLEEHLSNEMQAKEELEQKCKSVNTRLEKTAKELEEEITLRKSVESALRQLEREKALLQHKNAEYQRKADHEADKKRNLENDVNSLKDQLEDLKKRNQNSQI
# experiment notes: biochemical
quantity measured: IC50

// recorded IC50 for COc1ccc2c(c1)CN(c1cc(Nc3ccc4[nH]ncc4c3)nc(C)n1)C2 [Example 194] : 130 to 180 nM

----------
# test target: ROCK2 (Homo sapiens (Human), UniProt O75116)
# protocol conditions: read-out: ROCK2 IC50; Table 2; 12 uM ATP
pIC50: −log10 of the molar value.
pIC50 overview

compound	pIC50
CC(N)c1cccc(-c2nccc(Nc3ccc4[nH]ncc4c3)n2)c1 (centres unmarked) [Example 147]	< 5.26

Field: next compound
// recorded pIC50 for CC(C)NC(=O)COc1cccc(-c2nc(Nc3ccc4[nH]ncc4c3)cc(C(F)(F)F)n2)c1 [Example 169] : < 5.00

----------
# test target: ROCK2 (Homo sapiens (Human), UniProt O75116)
# protocol conditions: read-out: ROCK2 IC50; Table 3 (Example 203, method not given)
pIC50: −log10 of the molar value.
quantity measured: pIC50

// recorded pIC50 for COc1ccc2c(c1)CN(c1nc(C)c(C)c(Nc3ccc4[nH]ncc4c3)n1)C2 [Example 196] : < 8.00

----------
# test target: UniProt:Q13464
# Sequence (Q13464 1-535): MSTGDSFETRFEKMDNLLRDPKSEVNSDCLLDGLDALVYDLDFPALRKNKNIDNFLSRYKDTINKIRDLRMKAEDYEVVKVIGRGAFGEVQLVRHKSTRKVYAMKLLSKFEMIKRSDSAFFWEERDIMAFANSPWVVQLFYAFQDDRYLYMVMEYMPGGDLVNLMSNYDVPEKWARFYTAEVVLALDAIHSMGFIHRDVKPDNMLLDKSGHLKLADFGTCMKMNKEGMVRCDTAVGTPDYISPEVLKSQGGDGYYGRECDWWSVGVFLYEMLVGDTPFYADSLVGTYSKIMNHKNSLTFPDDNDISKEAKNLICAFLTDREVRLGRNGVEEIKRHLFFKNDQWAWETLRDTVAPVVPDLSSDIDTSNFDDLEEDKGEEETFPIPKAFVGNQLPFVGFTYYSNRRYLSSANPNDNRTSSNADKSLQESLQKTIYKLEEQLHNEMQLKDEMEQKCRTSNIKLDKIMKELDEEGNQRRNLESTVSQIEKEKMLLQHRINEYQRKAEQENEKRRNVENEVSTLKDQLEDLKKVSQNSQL
# Format: biochemical
# protocol conditions: Table 2; 5 uM ATP
pIC50: −log10 of the molar value.
pIC50 overview

compound	pIC50
CC(C)NC(=O)COc1cccc(-c2nc(Nc3ccc4[nH]ncc4c3)cc(C(F)(F)F)n2)c1	< 5.00

Field: next compound
// recorded pIC50 for CC(N)c1cccc(-c2nccc(Nc3ccc4[nH]ncc4c3)n2)c1 (centres unmarked) : < 5.70
